Recorded values, source patent US20240254209A1.

MEASURED_TARGET: T1, peanut allergen Ara h 2 (peanut (Arachis hypogaea)) (UniProt Q6PSU2)
T1 sequence (looked up): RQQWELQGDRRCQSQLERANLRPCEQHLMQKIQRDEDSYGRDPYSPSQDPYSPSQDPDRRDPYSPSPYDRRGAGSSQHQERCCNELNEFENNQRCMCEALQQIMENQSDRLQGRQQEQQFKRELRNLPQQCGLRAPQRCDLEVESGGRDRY
PROTOCOL_DESCRIPTION: ImmunoCAP, hybridoma supernatant
REPORTED_ENDPOINT: ImmunoCAP kUA/L (kUA/L)
# number only, unit kUA/L dropped from output

Sample answers from the record:
human IgE mAb 26A5 (antibody, V domains shown) VH: QVQLVQSGSELRKPGASVKVSCKASGYTFTKYGMNWVRQAPGQGLEWMGWINTNTAKPTYAQDFTGRFVFSLDTSVNTAYLEISGLKAEDTAVYYCATDGSEGSWGQGTLVTVSS VL: DIQMTQSPSTLSASVGDRVTITCRASQSIGTWLAWHQQKPGTAPKVLIYKASNLKSGVPSRFSGSGSGTDFTLTISSLQPDDVATYYCQQYNTYSGTFGQGTRVEIK    0.46
human IgE mAb 21C10 (antibody, V domains shown) VH: EVQLVESGGGLVKPGGSLRLSCAASGFILSRSSMSWVRQAPGKGLEWVSYISSTSSHIYYADSLKGRFTISRDNTENSVYLQMSSLRAEDTGVYYCARKTNGAWFLDLWGRGTLVTVSS VL: QSVLTQPPSVSGAPGQRVTISCTGSSSNIGAGSDVHWYQQFPGSAPHVLIYGNNQRPSGVPDRFSASKSGTSASLAITGLQADDEADYYCQSYDYDLSGSWVFGGGTKLTVL    0.46

Item human IgE mAb 2C9 (antibody, V domains shown) VH: QVQLVESGGGLVKPGGSLRLSCAASGFSFSDFYMSWIRQAPGKGLECISYMSSSGGNIYYADSVKGRFTISRDNAKNSLSLQMNSLRADDTALYYCARRRYGSGSSIFDYWSQGTLVTVSS VL: SYELTQPPSVSVSPGQTASVTCSGDTLGDRYVSWYQQKAGQSPVLVIYQSGQRPSGIPERFSGSNSGNTATLSISETQALDEADYYCLTWDRGTPVFGPGTTVTVV has what recorded ImmunoCAP kUA/L?
0.13
